Tested on: Mythimna separata
Experimental Protocol: Insecticidal activity against Mythimna separata (Oriental armyworm) fourth-instar larvae infected Zea mays leaves assessed as larvicidal activity at 200 mg/L measured 2 days post dose
Type: functional
I'd be grateful if you could share measured Activity for these entries.
Give the value, in units of %, as a plain number.

According to the records, this molecule Cc1cc(Cl)cc(C(=O)NC(C)(C)C)c1NC(=O)NC(=O)c1cc(C(F)(F)F)nn1-c1ncccc1Cl displays Activity of 60

Record Cc1cc(Br)cc(C(=O)NC(C)C)c1NC(=S)NC(=O)c1cc(Br)nn1-c1ncccc1Cl , field Activity: 100

Note to self: Activity recorded for Cc1cc(Br)cc(C(=O)NC2CC2)c1NC(=O)NC(=O)c1cc(C(F)(F)F)nn1-c1ncccc1Cl was 100

Entry Cc1cc(Cl)cc(C(=O)NC2CC2)c1NC(=S)NC(=O)c1cc(C(F)(F)F)nn1-c1ncccc1Cl — recorded Activity = 100

Lab note: Cc1cc(Cl)cc(C(=O)NC2CC2)c1NC(=O)NC(=O)c1cc(C(F)(F)F)nn1-c1ncccc1Cl gave Activity of 20

The recorded Activity for entry Cc1cc(Br)cc(C(=O)NC(C)C)c1NC(=S)NC(=O)c1cc(Cl)nn1-c1ncccc1Cl equals 100

molecule Cc1cc(Cl)cc(C(=O)NC(C)C)c1NC(=O)NC(=O)c1cc(C(F)(F)F)nn1-c1ncccc1Cl , Activity observed: 70

Reported Activity of Cc1cc(Cl)cc(C(=O)NC2CCCCC2)c1NC(=O)NC(=O)c1cc(C(F)(F)F)nn1-c1ncccc1Cl : 0

According to the records, this molecule CNC(=O)c1cc(Cl)cc(C)c1NC(=S)NC(=O)c1cc(Br)nn1-c1ncccc1Cl displays Activity of 100

The recorded Activity for Cc1cc(Br)cc(C(=O)NCc2ccccc2)c1NC(=S)NC(=O)c1cc(C(F)(F)F)nn1-c1ncccc1Cl is 100

The reported Activity of the molecule Cc1cc(Cl)cc(C(=O)NC(C)(C)C)c1NC(=S)NC(=O)c1cc(Br)nn1-c1ncccc1Cl was 100

Notebook: CNC(=O)c1cc(Cl)cc(C)c1NC(=S)NC(=O)c1cc(Cl)nn1-c1ncccc1Cl , Activity read as 100

Record Cc1cc(Cl)cc(C(=O)NC2CCCCC2)c1NC(=S)NC(=O)c1cc(C(F)(F)F)nn1-c1ncccc1Cl , field Activity: 40

GET /value?item= CCCCNC(=O)c1cc(Cl)cc(C)c1NC(=O)NC(=O)c1cc(C(F)(F)F)nn1-c1ncccc1Cl &field=Activity returns 40

// Activity value for Cc1cccc(C(=O)NCCC(C)C)c1NC(=S)NC(=O)c1cc(Br)nn1-c1ncccc1Cl : 100

Activity recorded for this molecule, Cc1cc(Cl)cc(C(=O)NC(C)C)c1NC(=S)NC(=O)c1cc(Cl)nn1-c1ncccc1Cl , is 100

Per the records, this molecule ( Cc1cccc(C(=O)NC(C)C)c1NC(=S)NC(=O)c1cc(Cl)nn1-c1ncccc1Cl ) has Activity equal to 100

The recorded Activity for CNC(=O)c1cc(Cl)cc(C)c1NC(=O)c1cc(Br)nn1-c1ncccc1Cl is 100

###

Test system: Plutella xylostella
Experimental Protocol: Insecticidal activity against Plutella xylostella (diamondback moth) s-instar larvae infected in fresh cabbage leaves assessed as larvicidal activity at 1 mg/L measured 2 days post dose
Type: functional
Provide the recorded Activity for the entries that follow.

Item: CNC(=O)c1cc(Cl)cc(C)c1NC(=O)c1cc(Br)nn1-c1ncccc1Cl | Activity: 100%

Short answer for Cc1cc(Cl)cc(C(=O)NC2CC2)c1NC(=S)NC(=O)c1cc(C(F)(F)F)nn1-c1ncccc1Cl : Activity was 100%

The molecule identified as Cc1cc(Cl)cc(C(=O)NC2CCCCC2)c1NC(=S)NC(=O)c1cc(C(F)(F)F)nn1-c1ncccc1Cl registered its Activity at 0%

The molecule identified as CCNC(=O)c1cc(Cl)cc(C)c1NC(=S)NC(=O)c1cc(C(F)(F)F)nn1-c1ncccc1Cl registered its Activity at 100%

Record CNC(=O)c1cc(Cl)cc(C)c1NC(=S)NC(=O)c1cc(C(F)(F)F)nn1-c1ncccc1Cl , field Activity: 100%

Reported Activity ( Cc1cc(Br)cc(C(=O)NCc2ccccc2)c1NC(=S)NC(=O)c1cc(C(F)(F)F)nn1-c1ncccc1Cl ) = 100%

###

System: Mythimna separata
Experimental Protocol: Insecticidal activity against Mythimna separata (Oriental armyworm) fourth-instar larvae infected Zea mays leaves assessed as larvicidal activity at 200 mg/L measured 2 days post dose
Type: functional
Measured Property: Activity
Write down the value, and be sure its unit follows.

Record CCCNC(=O)c1cccc(C)c1NC(=O)NC(=O)c1cc(C(F)(F)F)nn1-c1ncccc1Cl . Reported Activity: 60%

Looking up Cc1cccc(C(=O)NCCC(C)C)c1NC(=S)NC(=O)c1cc(Cl)nn1-c1ncccc1Cl , I see its Activity listed as 60%

In plain terms, O=C(NC(=O)c1cc(C(F)(F)F)nn1-c1ncccc1Cl)Nc1ccc(Cl)cc1C(=O)NC1CC1 has a documented Activity of 30%

Notebook: CNC(=O)c1cc(Cl)cc(C)c1NC(=S)NC(=O)c1cc(C(F)(F)F)nn1-c1ncccc1Cl , Activity read as 100%

Entry CCCNC(=O)c1cc(Cl)ccc1NC(=O)NC(=O)c1cc(C(F)(F)F)nn1-c1ncccc1Cl — recorded Activity = 0%

Data point: CNC(=O)c1cc(Cl)cc(C)c1NC(=O)NC(=O)c1cc(C(F)(F)F)nn1-c1ncccc1Cl ; Activity = 100%

Kindly note the recorded Activity for Cc1cc(Cl)cc(C(=O)NC2CCCCC2)c1NC(=S)NC(=O)c1cc(Br)nn1-c1ncccc1Cl , which is 0%

get_value(item= CCNC(=O)c1cc(Cl)cc(C)c1NC(=S)NC(=O)c1cc(C(F)(F)F)nn1-c1ncccc1Cl , readout=Activity) returns 100%

Please fill in: Activity reported for Cc1cccc(C(=O)NC2CC2)c1NC(=O)NC(=O)c1cc(C(F)(F)F)nn1-c1ncccc1Cl = 100%

###

System: Mythimna separata
Experimental Protocol: Insecticidal activity against Mythimna separata (Oriental armyworm) fourth-instar larvae infected Zea mays leaves assessed as larvicidal activity at 50 mg/L measured 2 days post dose
Format: functional
Measured Property: Activity (%)
State the answer as a number, implicitly in %.

The compound listed as CNC(=O)c1cc(Cl)cc(C)c1NC(=S)NC(=O)c1cc(Br)nn1-c1ncccc1Cl shows Activity equal to 100

Lab note: Cc1cccc(C(=O)NC(C)C)c1NC(=S)NC(=O)c1cc(Cl)nn1-c1ncccc1Cl gave Activity of 100

The reported Activity of the compound Cc1cc(Cl)cc(C(=O)NC(C)C)c1NC(=S)NC(=O)c1cc(Cl)nn1-c1ncccc1Cl was 100

Cc1cc(Br)cc(C(=O)NC(C)C)c1NC(=S)NC(=O)c1cc(Cl)nn1-c1ncccc1Cl has a reported Activity of 40

###

System: Plutella xylostella
Experimental Protocol: Insecticidal activity against Plutella xylostella (diamondback moth) s-instar larvae infected in fresh cabbage leaves assessed as larvicidal activity at 20 mg/L measured 2 days post dose
Type: functional
I'd be grateful if you could share measured Activity for these entries.
Express your answer in %, writing the number without its unit.

Memo: Cc1cc(Cl)cc(C(=O)NC2CCCCC2)c1NC(=S)NC(=O)c1cc(C(F)(F)F)nn1-c1ncccc1Cl , reported Activity: 30

The compound listed as Cc1cc(Br)cc(C(=O)NCc2ccccc2)c1NC(=S)NC(=O)c1cc(C(F)(F)F)nn1-c1ncccc1Cl shows Activity equal to 100

For CCNC(=O)c1cc(Cl)cc(C)c1NC(=S)NC(=O)c1cc(C(F)(F)F)nn1-c1ncccc1Cl the compound record lists Activity as 100

Please fill in: Activity reported for CNC(=O)c1cc(Cl)cc(C)c1NC(=O)c1cc(Br)nn1-c1ncccc1Cl = 100

# compound CNC(=O)c1cc(Cl)cc(C)c1NC(=S)NC(=O)c1cc(C(F)(F)F)nn1-c1ncccc1Cl ; its Activity = 100

So for Cc1cc(Cl)cc(C(=O)NC2CC2)c1NC(=S)NC(=O)c1cc(C(F)(F)F)nn1-c1ncccc1Cl , the logged Activity turned out to be 100

###

For each entry below, report its Activity value.
System: Culex pipiens pallens
Experimental Protocol: Insecticidal activity against Culex pipiens pallens (mosquito) fourth-instar larvae assessed as larvicidal activity at 0.5 mg/L measured 3 days post dose
Type: functional
Lab book: enter the figure in %, no units written.

// field: Activity; key: Cc1cc(Br)cc(C(=O)NC(C)C)c1NC(=S)NC(=O)c1cc(Cl)nn1-c1ncccc1Cl ; value = 20

Short answer for Cc1cc(Br)cc(C(=O)NC(C)C)c1NC(=S)NC(=O)c1cc(Br)nn1-c1ncccc1Cl : Activity was 30

Summary for this compound, CNC(=O)c1cc(Cl)cc(C)c1NC(=O)c1cc(Br)nn1-c1ncccc1Cl [CHLORANTRANILIPROLE] : Activity is 100

// Activity lookup, compound = Cc1cc(Cl)cc(C(=O)NC(C)(C)C)c1NC(=S)NC(=O)c1cc(Br)nn1-c1ncccc1Cl , result: 30

Cited source for all entries: ChEMBL document CHEMBL3046803
